Ref: the supplement of paper PMC10065799

# targetOfAssay: Jak2 (UniProt O60674)
# Sequence (O60674 whole entry, looked up): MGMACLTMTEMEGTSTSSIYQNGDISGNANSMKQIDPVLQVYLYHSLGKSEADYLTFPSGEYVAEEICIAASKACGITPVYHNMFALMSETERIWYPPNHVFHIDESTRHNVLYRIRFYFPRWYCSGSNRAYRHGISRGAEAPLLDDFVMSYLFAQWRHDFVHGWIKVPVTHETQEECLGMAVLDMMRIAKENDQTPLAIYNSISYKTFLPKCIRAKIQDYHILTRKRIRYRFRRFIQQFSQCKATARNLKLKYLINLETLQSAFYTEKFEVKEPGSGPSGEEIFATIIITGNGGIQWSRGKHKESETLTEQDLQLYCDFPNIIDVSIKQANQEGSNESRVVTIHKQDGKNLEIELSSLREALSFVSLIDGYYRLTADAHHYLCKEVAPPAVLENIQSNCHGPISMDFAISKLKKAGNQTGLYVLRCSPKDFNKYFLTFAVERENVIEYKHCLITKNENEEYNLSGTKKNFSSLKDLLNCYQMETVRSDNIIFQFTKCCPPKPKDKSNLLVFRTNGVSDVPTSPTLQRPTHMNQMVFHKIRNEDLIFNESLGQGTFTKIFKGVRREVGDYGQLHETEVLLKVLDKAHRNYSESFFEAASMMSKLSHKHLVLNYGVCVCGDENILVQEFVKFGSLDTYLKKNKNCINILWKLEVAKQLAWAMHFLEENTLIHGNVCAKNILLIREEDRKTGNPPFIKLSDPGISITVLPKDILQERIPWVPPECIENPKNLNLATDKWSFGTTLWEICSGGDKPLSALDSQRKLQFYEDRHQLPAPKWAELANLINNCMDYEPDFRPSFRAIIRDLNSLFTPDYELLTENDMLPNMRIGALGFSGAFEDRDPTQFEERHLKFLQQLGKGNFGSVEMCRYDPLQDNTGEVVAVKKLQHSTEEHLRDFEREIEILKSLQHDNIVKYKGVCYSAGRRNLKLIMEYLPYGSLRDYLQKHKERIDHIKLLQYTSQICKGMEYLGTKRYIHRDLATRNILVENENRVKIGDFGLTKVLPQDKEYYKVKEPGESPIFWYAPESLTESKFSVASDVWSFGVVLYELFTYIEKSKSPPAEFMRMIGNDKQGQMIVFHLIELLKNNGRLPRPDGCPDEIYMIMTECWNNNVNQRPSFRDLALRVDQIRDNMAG
# protocolNotes: phosphorylation enrichment, bacterial display (enrichment ratio); higher = better substrate or ligand; peptides without Tyr show the background;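 further: 11-residue human phosphosite peptides and single-mutation variants displayed on the E. coli surface, counted by deep sequencing, each peptide's frequency after selection divided by its frequency in the unselected input library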;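 further: frequency after pTyr selection over input frequency; kinase dosed for 20-30% of maximal phosphorylation in three min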
Rule: t for phosphorylation enrichment not less than 0.8, f for anything less.

A selection of reference data follows.
sequenceString	answerLabel
TLSGIYQFNIA [FOXL2_Y81_I84N_YF]	f
TGHKGYVAFLE [CARD9_Y76]	f
WTAHSYRMGSA [ARHGEF7_Y785_T790A]	f
VNYGAYINYFK [GLB1_Y488_D491Y]	t
EKRDAYVSCLN [GSR_Y150_R153C]	f
QERPEYWDQET [HLA-A_Y83_G80R]	t
EQKKNYNAMKK [SCN5A_Y1495_Y1494N]	t
GCRSKYVGLWR [KCNQ1_Y184_G189R]	f

Input line: Tell me whether phosphorylation enrichment is at least 0.8 here: TDLAYYLVCKG [ASL_Y376_R379C]
Output line: t

Input line: Follow-up entry: TALFIYIRPKA [OR10C1_Y258]
Output line: t

Input line: Follow-up entry: VKPENYRRLDI [VHL_Y175]
Output line: f

Input line: Follow-up entry: LSQAKYQIRFR [CRLF1_Y272_F268S_YF]
Output line: f

Input line: Follow-up entry: KTTSGYAGGLS [KRT8_Y419]
Output line: f
